pIC50: −log10 of the molar value.
pIC50, cGMP-specific 3',5'-cyclic phosphodiesterase (Homo sapiens): measured values
recorded.endpoint: pIC50

{"cpd.smiles": "CCN1C(=O)c2nc(Cc3ccccc3)n(Cc3ccc(O)cc3)c2N2C[C@@H](Cc3ccccc3)N=C12", "system": "cGMP-specific 3',5'-cyclic phosphodiesterase (Homo sapiens)", "pIC50": 7.55}

[A] CCN1C(=O)c2nc(C#Cc3ccccc3)n(Cc3ccc(OC)cc3)c2N2C[C@@H](Cc3ccccc3)N=C12
[B] CCN1C(=O)c2nc(CCc3ccccc3)n(Cc3ccccc3)c2N2C[C@@H](Cc3ccccc3)N=C12
Prompt: Larger number for pIC50: A , or B ? Lab log: write the label of the selected item as the result.
Response: A
(A: 7.70, B: 7.13)

Origin of measurements: ChEMBL document CHEMBL1144389
